These entries and their values trace back to patent US10513521B2.

# study-system: ALK6 (Homo sapiens)
# Sequence (O00238 14-502): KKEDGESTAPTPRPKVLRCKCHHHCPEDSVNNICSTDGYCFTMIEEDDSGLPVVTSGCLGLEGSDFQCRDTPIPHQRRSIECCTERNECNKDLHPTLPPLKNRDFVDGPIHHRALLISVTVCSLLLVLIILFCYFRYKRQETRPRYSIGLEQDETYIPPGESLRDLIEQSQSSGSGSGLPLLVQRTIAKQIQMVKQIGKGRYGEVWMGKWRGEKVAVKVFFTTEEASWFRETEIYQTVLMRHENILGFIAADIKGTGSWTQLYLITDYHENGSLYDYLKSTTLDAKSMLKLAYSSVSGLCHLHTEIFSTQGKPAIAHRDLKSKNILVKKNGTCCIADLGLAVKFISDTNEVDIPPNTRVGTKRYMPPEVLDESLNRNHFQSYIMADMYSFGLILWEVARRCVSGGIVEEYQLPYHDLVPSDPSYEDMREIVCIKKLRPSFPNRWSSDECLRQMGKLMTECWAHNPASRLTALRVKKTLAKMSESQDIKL
# protocol-notes: TR-FRET enzymatic ALK kinase assay, ALK6
pIC50: −log10 of the molar value.
Hi there, I'd appreciate the recorded pIC50 for every entry that follows.

Sample records with pIC50:
[[record]]
compound = "NS(=O)(=O)c1cccc(-c2cnn3cc(-c4ccc(C5CCNCC5)cc4)cnc23)c1"
study_system = "ALK6 (Homo sapiens)"
result = "< 5.00"

[[record]]
compound = "C[C@@H]1CNC[C@H](C)N1c1ccc(-c2cnc3c(-c4cc(C#N)cc(S(N)(=O)=O)c4)cnn3c2)cc1"
study_system = "ALK6 (Homo sapiens)"
result = "< 5.00"

[[record]]
compound = "Cc1ccc(-c2cnn3cc(-c4ccc(N5[C@H](C)CNC[C@@H]5C)cc4)cnc23)cc1S(N)(=O)=O"
study_system = "ALK6 (Homo sapiens)"
result = "< 5.00"


Now look at this entry.
So what does the record say about pIC50 for NC(c1cccc(-c2cnn3cc(-c4ccc(OCCN5CCCCC5)cc4)cnc23)c1)C(F)(F)F (stereo not shown) ?
< 5.00
